System: Escherichia coli TOP10;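 note: peptides expressed intracellularly from a pBAD plasmid library in pooled LB shake-flask culture, induced with 0.3% L-arabinose, DNA abundance read by NGS, three biological replicates, DESeq2 with apeglm shrinkage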
measurement protocol: shrunken log2 fold change of peptide-encoding DNA abundance (4.5 h post-induction vs induction); higher = less antimicrobial activity (less host growth inhibition)
study conditions: time post-induction: 4.5 h; library: site-saturation at positions 5, 18, 19, 20
observed property: shrunken log2 fold change

| sequence string | observed property | test result |
| --- | --- | --- |
| RRIRCRPPRLPRPRPRPTRVPRP | shrunken log2 fold change | 0.547 |
| RRIRVRPPRLPRPRPRPVWIPRP | shrunken log2 fold change | -0.206 |
| RRIRFRPPRLPRPRPRPKRAPRP | shrunken log2 fold change | 0.244 |
| RRIRMRPPRLPRPRPRPWHYPRP | shrunken log2 fold change | -0.327 |
| RRIRNRPPRLPRPRPRPKFEPRP | shrunken log2 fold change | 0.0146 |
| RRIRERPPRLPRPRPRPTILPRP | shrunken log2 fold change | -0.0814 |
| RRIRVRPPRLPRPRPRPSTSPRP | shrunken log2 fold change | -0.0898 |
| RRIRLRPPRLPRPRPRPCGDPRP | shrunken log2 fold change | -0.00813 |
| RRIRGRPPRLPRPRPRPRSLPRP | shrunken log2 fold change | 0.778 |
| RRIRDRPPRLPRPRPRPYANPRP | shrunken log2 fold change | -0.209 |
| RRIRIRPPRLPRPRPRPDSIPRP | shrunken log2 fold change | -0.00884 |
| RRIRTRPPRLPRPRPRPPLNPRP | shrunken log2 fold change | -0.183 |
| RRIRWRPPRLPRPRPRPMTKPRP | shrunken log2 fold change | 0.181 |
| RRIRCRPPRLPRPRPRPSEIPRP | shrunken log2 fold change | -0.321 |
| RRIRMRPPRLPRPRPRPRLPPRP | shrunken log2 fold change | 0.805 |
